Data credit: PubChem BioAssay

assay: probe aLefty1 binding on compound microarray – biochemical, small-molecule microarray, 635/667 nm fluorescence, primary screen (AID 1153); settings: higher = more signal;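 note: score merges spot fluorescence with signal-to-noise ratio from the scanned slide images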
As shown below, each of these compounds has a reported composite z-score value.
Form rule: numeric answer, no unit written next to it.

[
  {
    "COMPOUND": "COCCOC(=O)N1C(=O)[C@@]2(c3cc(C#Cc4ccc(OC)cc4)ccc31)[C@H](c1ccc(O)cc1)N1[C@H](c3ccccc3)[C@H](c3ccccc3)OC(=O)[C@H]1[C@@H]2C(=O)N1CCN(c2ncccn2)CC1",
    "RECORDED VALUE": -0.0601
  },
  {
    "COMPOUND": "Cc1cc(C)c(C(O)C2C=CC3C(=O)NC(=O)C3N2Nc2ccccn2)c(C)c1 (centres undefined)",
    "RECORDED VALUE": 0.469
  },
  {
    "COMPOUND": "CC(C)C[C@@H]1NC(=O)[C@@H]2C[C@H](C(=O)NCCCCN(C)C)[C@H](c3ccc(O)cc3)N2C1=O",
    "RECORDED VALUE": -0.0655
  },
  {
    "COMPOUND": "CC(C)C(O)C1C=CC2C(=O)N(C)C(=O)C2N1N1CCCCC1 (centres undefined)",
    "RECORDED VALUE": 0.134
  },
  {
    "COMPOUND": "CCOC(=O)C1=CC[C@@H](c2cccc(Cl)c2)N(S(=O)(=O)c2ccc(C)cc2)[C@H]1c1ccc(C#N)cc1",
    "RECORDED VALUE": 0.514
  },
  {
    "COMPOUND": "C=CCC(OC(C)=O)[C@@H]1[C@@H](N(Cc2cc3ccccc3o2)C(=O)c2ccc(C)cc2)c2cc(OCCCO)ccc2N1C(=O)c1ccc(-c2ccccc2)cc1 (some centres undefined)",
    "RECORDED VALUE": -0.519
  },
  {
    "COMPOUND": "C=C(CCCC)C(=O)CC[C@H](OC(=O)c1ccccc1-c1ccccc1C(=O)O)c1ccc(CO)o1",
    "RECORDED VALUE": -0.0984
  },
  {
    "COMPOUND": "COCC1C2CC[C@H]3C(OCc4ccc(F)cc4C(F)(F)F)OC[C@]4(C)[C@H]3C2=C(CN4C(=O)OC(C)(C)C)[C@H](C)C1COC (some centres undefined)",
    "RECORDED VALUE": 0.891
  }
]

I am curious: what composite z-score value has been reported for CCCCCCCCCCC(O)C1C=CC2C(=O)N(c3ccccc3)C(=O)C2N1Nc1ccc([N+](=O)[O-])cc1 (centres undefined) ?
0.315
